system: E. faecalis ATCC 10541; assay: Checkerboard microdilution MIC with PFOB, Table 2; assay type: cell-based; conditions: E. faecalis ATCC 10541; PFOB 0.5 mg/L
# MIC of partner antibiotic in the presence of PFOB at 0.5 mg/L values compiled below

Answered cases to consult:
{"Chemical Smiles": "O=C(O)[C@H]1/C(=C/CO)O[C@@H]2CC(=O)N21", "Result": ">64 µg/mL"}
{"Chemical Smiles": "CO/N=C(\\C(=O)N[C@@H]1C(=O)N2C(C(=O)O)=C(COC(N)=O)CS[C@H]12)c1ccco1", "Result": ">64 µg/mL"}

Next item in the queue.
-- ask For CC(C)(O/N=C(\C(=O)N[C@@H]1C(=O)N2C(C(=O)[O-])=C(C[n+]3ccccc3)CS[C@H]12)c1csc(N)n1)C(=O)O , what is its reported MIC of partner antibiotic in the presence of PFOB at 0.5 mg/L?
-- reply >64 µg/mL

Provenance of the data: patent US20040176349A1
